Target: UniProt:P56817
Assay: In vitro enzymatic BACE FRET assay
Assay type: biochemical
Conditions: average IC50; read-out: BACE1 FRET assay IC50
quantity_kind: IC50 (nM)

[[record]]
compound = "CCCOc1cnc(C(=O)Nc2ccc3c(c2)[C@@]2(C)N=C(N)C(C)(C)S(=O)(=O)[C@@H]2C[C@H](C)O3)cn1"
quantity_kind = "IC50"
units_of_measure = "nM"
val = 5

[[record]]
compound = "COc1ccc(C(=O)Nc2ccc3c(c2)[C@@]2(C)N=C(N)C(C)(C)S(=O)(=O)[C@@H]2C[C@H](C)O3)nc1"
quantity_kind = "IC50"
units_of_measure = "nM"
val = 11

[[record]]
compound = "COc1cnc2c(Nc3cnc4c(c3)[C@@]3(C)N=C(N)C5(CCC5)S(=O)(=O)[C@@H]3CCO4)nccc2n1"
quantity_kind = "IC50"
units_of_measure = "nM"
val = 37

[[record]]
compound = "CC1(C)C(N)=N[C@]2(C)c3cc(NC(=O)c4ccc(C(F)(F)F)cn4)ccc3OCC[C@H]2S1(=O)=O"
quantity_kind = "IC50"
units_of_measure = "nM"
val = 6

[[record]]
compound = "CC#C[C@@H](C)Oc1ccc(C(=O)Nc2ccc3c(c2)[C@@]2(C)N=C(N)C(C)(C)S(=O)(=O)[C@@H]2CCO3)nc1 (single isomer, unassigned)"
quantity_kind = "IC50"
units_of_measure = "nM"
val = 2


a: COc1cnc(C(=O)Nc2ccc3c(c2)[C@@]2(C)N=C(N)C(C)(C)S(=O)(=O)[C@@H]2C[C@H](C)O3)cn1
b: CC#C[C@@H](C)Oc1cnc2c(Nc3ccc4c(c3)[C@@]3(C)N=C(N)C(C)(C)S(=O)(=O)[C@@H]3CCO4)ncc(F)c2c1 (single isomer, unassigned)
Which entry shows the lesser value of IC50 here, a or b ? Could you answer with the label of the item you picked?
a

1: C[C@]12N=C(N)C3(CCC3)S(=O)(=O)[C@@H]1CCOc1ncc(NC(=O)c3ccc(C#N)cn3)cc12
2: Cc1cc(Cl)cnc1C(=O)Nc1ccc2c(c1)[C@@]1(C)N=C(N)C(C)(C)S(=O)(=O)[C@]1(C)CCO2
Thinking about recorded IC50 values, which is higher, 1 or 2 ? Could you answer with the label of the item you picked?
2
(2: 150 nM, 1: 36 nM)

----------
Biological target: Beta Secretase enzyme (BACE) (Homo sapiens)
Sequence (P56817 46-501): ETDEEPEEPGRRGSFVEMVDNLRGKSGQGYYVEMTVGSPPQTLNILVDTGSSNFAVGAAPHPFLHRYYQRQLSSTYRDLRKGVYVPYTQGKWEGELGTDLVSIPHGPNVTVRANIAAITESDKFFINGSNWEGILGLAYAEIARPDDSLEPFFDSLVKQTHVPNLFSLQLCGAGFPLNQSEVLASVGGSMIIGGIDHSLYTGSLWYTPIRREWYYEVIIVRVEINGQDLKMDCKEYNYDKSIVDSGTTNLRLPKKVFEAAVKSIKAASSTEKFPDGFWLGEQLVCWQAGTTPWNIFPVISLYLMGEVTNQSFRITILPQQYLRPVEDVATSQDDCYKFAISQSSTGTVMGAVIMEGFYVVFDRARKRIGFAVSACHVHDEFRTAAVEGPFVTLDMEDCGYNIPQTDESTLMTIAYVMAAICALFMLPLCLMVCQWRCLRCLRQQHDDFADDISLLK
Test: In vitro enzymatic BACE FRET assay
Type: biochemical
Settings: average IC50; read-out: BACE1 FRET assay IC50
quantity_kind: IC50 (nM)

[[record]]
smiles = "Cc1cc(Cl)cnc1C(=O)Nc1ccc2c(c1)[C@@]1(C)N=C(N)C(C)(C)S(=O)(=O)[C@]1(F)CCO2"
units_of_measure = "nM"
val = 6

[[record]]
smiles = "Cc1cc(Cl)cnc1C(=O)Nc1ccc2c(c1)[C@@]1(C)N=C(N)C(C)(C)S(=O)(=O)[C@@H]1CCC2"
units_of_measure = "nM"
val = 5


A: COc1cnc(C(=O)Nc2ccc3c(c2)[C@@]2(C)N=C(N)C(C)(C)S(=O)(=O)[C@]2(F)CCO3)cn1
B: CC#CCOc1cnc(C(=O)Nc2ccc3c(c2)[C@@]2(C)N=C(N)C(C)(C)S(=O)(=O)[C@@H]2CCC3)cn1
Which entry shows the lesser value of IC50 here, A or B ? Could you answer with the label of the item you picked?
B
(B: 0.7 nM, A: 22 nM)

1: Cc1cc(OC(F)F)cnc1C(=O)Nc1ccc2c(c1)[C@@]1(C)N=C(N)C(C)(C)S(=O)(=O)[C@@H]1CCC2
2: CC1(C)C(N)=N[C@]2(C)c3cc(Nc4nccc5cc(Cl)cnc45)cnc3OCC[C@H]2S1(=O)=O
Which entry shows the lesser value of IC50 here, 1 or 2 ? Could you answer with the label of the item you picked?
2

A: Cc1cc(Cl)cnc1C(=O)Nc1cnc2c(c1)[C@@]1(C)N=C(N)C(C)(C)S(=O)(=O)[C@@H]1CCO2
B: COc1ccc(C(=O)Nc2ccc3c(c2)[C@@]2(C)N=C(N)C(C)(C)S(=O)(=O)[C@@H]2CCO3)nc1
C: COc1cnc(C(=O)Nc2ccc3c(c2)[C@@]2(C)N=C(N)C(C)(C)S(=O)(=O)[C@@H]2CCC3)cn1
Please list these molecules in decreasing order of IC50. List the labels according to the requested ordering.
B, C, A
